# Tested on: M. tuberculosis H37Rv growth inhibition
# procedure_text: Mycobacterium tuberculosis H37Rv growth inhibition, putative kinase inhibitor library, confirmatory dose response (AID 2842);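 also: bacteria incubated one week before Alamar blue readout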
result_type: IC90

Use the examples below as a reference point.
Q) # input compound: COc1cccc(C(=O)NNc2nc3c(C)cccc3s2)c1 ; wanted: its IC90
A) 11.6 µg/mL

Q) Quick check: IC90 of O=C(c1ccco1)N(CCCn1ccnc1)c1nc2c(F)cccc2s1 ?
A) 3.11 µg/mL

Q) Can you look up the measured IC90 of CC1CN(c2ncnc3c2c(-c2ccccc2)cn3-c2ccc(F)cc2)CC(C)O1 (stereo not drawn) for me?
A) 42.4 µg/mL

Q) Any idea what IC90 was measured for Cc1cccc2sc(NNC(=O)c3nc4ccccc4s3)nc12 ?
A) 3.36 µg/mL

Q) Recorded IC90 of Cc1ccc2sc(N(CCN(C)C)C(=O)c3cccc4ccccc34)nc2c1C , please.
A) 11.8 µg/mL

Q) Which IC90 value belongs to O=C(/C=C/c1ccc(-c2ccccc2[N+](=O)[O-])o1)c1cccs1 ?
A) 13 µg/mL

Q) Quick one: IC90 of Cc1ccc(C2=NC(C)(C)N=C2SCC(=O)Nc2ccc(C)c(C)c2)cc1 ?
A) 23.5 µg/mL

Q) Returns the measured IC90 for the input compound. Input: CCN1CCc2c(sc(NC(=O)c3sc4ccccc4c3Cl)c2C(N)=O)C1
A) 10.6 µg/mL

Working through the 5 compounds below one at a time, give IC90 for each.
1. O=C(/C=C/c1cccs1)Nc1nnc(-c2ccco2)o1
2. O=[N+]([O-])c1cccc(-c2ccc(/C=N/O)o2)c1
3. COC(=O)COc1cccc(/C=C2\Oc3cc(OC)ccc3C2=O)c1
4. O=C(Nc1nc(-c2nc3ccccc3s2)cs1)C1COc2ccccc2O1 (stereo not drawn)
5. CCOC(=O)COc1ccc(/C=C2\Oc3cc(OC)ccc3C2=O)cc1

A)
1. 5.99 µg/mL
2. 11.9 µg/mL
3. 17.3 µg/mL
4. 26.8 µg/mL
5. 3.32 µg/mL

----------
# Test system: M. tuberculosis H37Rv growth inhibition
# procedure_text: Mycobacterium tuberculosis H37Rv growth inhibition, putative kinase inhibitor library, confirmatory dose response (AID 2842);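 also: bacteria incubated one week before Alamar blue readout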
result_type: IC90

Below are worked cases with known answers.
Q) IC90 for O=C(Nc1nnc(-c2cc(Cl)ccc2Cl)o1)c1ccco1 ?
A) 27.5 µg/mL

Q) For the molecule Cc1ccc(-c2nnc(NC(=O)CCOc3ccccc3)o2)c(C)c1 , what IC90 is on record?
A) 1.8 µg/mL

Q) Param item = COc1ccc(-c2nnc3c4cc(OC)ccc4n(Cc4ccccc4F)cc2-3)cc1 ; retrieve measured IC90.
A) 9.08 µg/mL

Q) What IC90 value was documented for this molecule, Cc1c(Cl)ccc2sc(N(CCCn3ccnc3)C(=O)COc3ccccc3)nc12 ?
A) 3.05 µg/mL

Q) Item NC(=O)c1c(NC(=O)/C=C/c2ccc([N+](=O)[O-])s2)sc2c1CCCC2 has what recorded IC90?
A) 4.6 µg/mL

Q) Record request: IC90 value, item O=C(Nc1nc(-c2ccc3c(c2)OCCO3)cs1)C1CCCCC1
A) 11.7 µg/mL

Q) Recorded IC90 for COc1cccc(C(=O)N(CCCn2ccnc2)c2nc3ccc(F)cc3s2)c1OC , please?
A) 6.75 µg/mL

Q) I have this molecule here, CCOC(=O)Cn1c(=NC(=O)c2ccc([N+](=O)[O-])s2)sc2cc(S(C)(=O)=O)ccc21 , and I need its recorded IC90.
A) 21.8 µg/mL

Please turn your attention to the following entry.
Q) Fill in: IC90 of COc1ccc(-c2nnc(NC(=O)c3ccc(Cl)cc3Cl)o2)cc1 is ___
A) 14.1 µg/mL

----------
# Tested on: M. tuberculosis H37Rv growth inhibition
# procedure_text: Mycobacterium tuberculosis H37Rv growth inhibition, putative kinase inhibitor library, confirmatory dose response (AID 2842);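 also: bacteria incubated one week before Alamar blue readout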
result_type: IC90

Solved entries:
Q) What value of IC90 has been recorded for this entry: O=C(Nc1nnc(-c2cc(Cl)ccc2Cl)o1)c1c(F)cccc1F
A) 3.48 µg/mL

Q) I have this molecule here, Cc1ccc(NC(=O)CC2Nc3cccc4cccc(c34)NC2=O)cc1 (stereo unspecified) , and I need its recorded IC90.
A) 61.8 µg/mL

Q) Bench note: what IC90 did O=c1c2ccccc2oc2cc(O)ccc12 show?
A) 50 µg/mL

Q) Looking for the measured IC90 of Cc1ccc(C)c(-c2nnc(NC(=O)c3ccccc3S(C)(=O)=O)o2)c1 , can you help?
A) 19.3 µg/mL

Q) Which value of IC90 has been reported for CCOc1cc(-c2nnc(NC(=O)c3cc4ccccc4cc3OC)o2)cc(OCC)c1OCC in the records?
A) 2.68 µg/mL

Consider the following items and state reported IC90 for each.
1. O=C(NCC(c1cccs1)N1CCc2ccccc2C1)c1ccc2c(c1)OCO2 (stereo unspecified)
2. CC1CCCCN1S(=O)(=O)c1ccc(C(=O)Nc2nnc(-c3ccc(Br)cc3)o2)cc1 (stereo unspecified)
3. Cc1ccc(C)c(-c2nnc(NC(=O)c3cccc([N+](=O)[O-])c3)o2)c1
4. COc1ccc(OC)c2sc(N(CCCn3ccnc3)C(=O)c3ccc(F)cc3)nc12

A)
1: 23.9 µg/mL; 2: 17.3 µg/mL; 3: 29.6 µg/mL; 4: 13.5 µg/mL

Record IC90 per entry; entries follow.
1. CSc1ccccc1-c1nnc(NC(=O)c2cc(Cl)ccc2Cl)o1
2. CCOC(=O)N1CCN(c2ncnc3c2cnn3-c2ccc(C)cc2)CC1

A)
1: 0.98 µg/mL; 2: 21.4 µg/mL

----------
For each of the compounds below, state its IC90.
# System: M. tuberculosis H37Rv growth inhibition
# procedure_text: Mycobacterium tuberculosis H37Rv growth inhibition, putative kinase inhibitor library, confirmatory dose response (AID 2842);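 also: bacteria incubated one week before Alamar blue readout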

Sample answers from the record:
Q) Under M. tuberculosis H37Rv growth inhibition: IC90 value of Cc1ccc2nc(N(CCCn3ccnc3)C(=O)c3cccs3)sc2c1 ?
A) 1.73 µg/mL

Q) # query: IC90 | item COc1ccc2nc(Nc3nc(C(C)(C)C)cs3)sc2c1 | system: M. tuberculosis H37Rv growth inhibition
A) 10.1 µg/mL

Q) Request: IC90, test system M. tuberculosis H37Rv growth inhibition, entry O=C(Nc1nnc(-c2ccc(F)cc2)o1)c1ccc2c(c1)CCCC2
A) 8.65 µg/mL

Q) What IC90 appears in the records for this compound with M. tuberculosis H37Rv growth inhibition? COc1ccc2nc(Nc3ccc4nc(C)sc4c3)sc2c1
A) 15.2 µg/mL

Q) Record lookup: for M. tuberculosis H37Rv growth inhibition, what IC90 belongs to Cc1cc(C)c2nc(NNC(=O)c3cc4ccccc4oc3=O)sc2c1 ?
A) 2.16 µg/mL

For every item below, please supply its IC90.
1. CCOC(=O)N1CCc2c(sc(NC(=O)c3ccco3)c2-c2nc3ccccc3s2)C1
2. CCCCOc1cccc(C(=O)Nc2nnc(-c3cc(C)ccc3C)o2)c1
3. Cc1ccc(C)c(-c2nnc(NC(=O)c3cccc(Br)c3)o2)c1
4. CCS(=O)(=O)c1cccc(C(=O)Nc2nc3ccc(C(C)C)cc3s2)c1
5. CCCCOc1cccc(C(=O)Nc2nnc(-c3ccc(C)cc3C)o2)c1
6. Cc1cc(C)c2nc(NNC(=O)c3ccc(F)cc3)sc2c1

A)
1. 50.2 µg/mL
2. 12.4 µg/mL
3. 12.6 µg/mL
4. 11.3 µg/mL
5. 2.63 µg/mL
6. 3.98 µg/mL

----------
# System: M. tuberculosis H37Rv growth inhibition
# procedure_text: Mycobacterium tuberculosis H37Rv growth inhibition, putative kinase inhibitor library, confirmatory dose response (AID 2842);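 also: bacteria incubated one week before Alamar blue readout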
Assignment: determine reported IC90 for the given molecules.

Some solved cases for reference:
Q) Hello, I am looking for reported IC90 with M. tuberculosis H37Rv growth inhibition for CCOC(=O)c1ccc2nc(Nc3nc4ccc(OC)cc4s3)sc2c1 . Could you help?
A) 29 µg/mL

Q) Record O=C(Nc1ccc(Cl)c(Cl)c1)NC1CC(=O)N(c2cccc(F)c2)C1 (stereo not drawn) : what is its IC90 with M. tuberculosis H37Rv growth inhibition?
A) 6.41 µg/mL

Q) Recall the recorded IC90 for CCOC(=O)N1CCc2c(sc(NC(=O)c3ccc(F)cc3)c2C(N)=O)C1 with M. tuberculosis H37Rv growth inhibition and state it.
A) 1.89 µg/mL

Q) Entry CC(=O)CSc1nc2c([nH]c3ccccc32)c(=O)n1-c1cc(C)ccc1C , system M. tuberculosis H37Rv growth inhibition: what IC90 was measured?
A) 22 µg/mL

Q) Give IC90 (M. tuberculosis H37Rv growth inhibition) of the following molecule: COc1cccc(C(=O)Nc2nnc(-c3ccc(Cl)cc3)o2)c1
A) < 0.2 µg/mL

Please look at the items below and tell me IC90 for each one, in order.
1. CC(=O)Nc1ccc2nc(Nc3nc4ccc(C(C)C)cc4s3)sc2c1
2. Cc1cc(Cl)cc2sc(N(CCCn3ccnc3)C(=O)c3cccs3)nc12
3. CC(C)Cn1c(N2CCN(Cc3ccc(Cl)c(Cl)c3)CC2)nc2c1c(=O)[nH]c(=O)n2C

A)
2 µg/mL
1.05 µg/mL
1.43 µg/mL
